# tgt: 5-hydroxytryptamine receptor 2C (Rattus norvegicus)
# Sequence (P08909 whole entry): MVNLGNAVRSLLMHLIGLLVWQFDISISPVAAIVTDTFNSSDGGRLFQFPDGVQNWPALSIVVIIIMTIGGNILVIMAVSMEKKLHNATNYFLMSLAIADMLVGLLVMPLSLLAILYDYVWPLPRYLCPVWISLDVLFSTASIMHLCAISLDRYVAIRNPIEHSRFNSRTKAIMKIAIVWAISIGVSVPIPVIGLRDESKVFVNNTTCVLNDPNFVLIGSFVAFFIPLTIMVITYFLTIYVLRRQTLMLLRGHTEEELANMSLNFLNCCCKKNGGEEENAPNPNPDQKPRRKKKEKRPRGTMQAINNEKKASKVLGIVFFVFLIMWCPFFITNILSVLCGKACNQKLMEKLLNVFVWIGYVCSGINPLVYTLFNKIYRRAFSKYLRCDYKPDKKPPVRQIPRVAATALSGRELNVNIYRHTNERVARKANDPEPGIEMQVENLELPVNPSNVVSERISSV
Binary call on Ki with cut-off 200 nM: strictly below means class 1, and equality or higher means class 0.

compound | assigned_category
Cn1c2c(c3ccccc31)CN(CCCOCc1ccccc1)CC2 | class 0

Input c1ccc(OCCCN2CCc3[nH]c4ccccc4c3C2)cc1 ; condition: Ki strictly below 200 nM. Does it hold?
class 1

Same question for COc1cccc2c3c(n(C)c12)CCN(CCCOc1ccc(F)cc1)C3 please.
class 0

Same question for CCn1c2c(c3ccccc31)CN(CCCOc1ccccc1)CC2 please.
class 0

Same question for Cn1c2c(c3ccccc31)CN(CCCOc1ccc(F)cc1)CC2 please.
class 1

Same question for Cn1c2c(c3ccccc31)CN(CCOc1ccc(F)cc1)CC2 please.
class 0

Same question for Cn1c2c(c3ccccc31)CN(CCC/C(=N/O)c1ccc(F)cc1)CC2 please.
class 1

Same question for Cn1c2c(c3cc(Cl)ccc31)CN(CCCOc1ccc(F)cc1)CC2 please.
class 0

Same question for c1ccc(OCCCN2CCc3c([nH]c4ccccc34)C2)cc1 please.
class 0
